Cited source: ChEMBL document CHEMBL4619772

Please go through the items and note down their remaining at 1 h, 20 µM.
# RUN_DESCRIPTION: Metabolic stability in human pooled plasma assessed as parent compound remaining at 20 uM after 60 mins by HPLC analysis
# Type: ADME, cell-free
# ASSAY_SETUP: read-out: Stability
Numbers only, in %.

Here is how some molecules turned out for remaining at 1 h, 20 µM.
COMPOUND_SMILES	remaining at 1 h, 20 µM (%)
O=C(Nc1ccc(C23CC4CC(CC(C4)C2)C3)cc1)c1ccc(CN2CCOCC2)cc1	86
CC(C)(C)c1ccc(NC(=O)c2ccc(CN3CCCCC3)cc2)c(C(C)(C)C)c1	85
O=C(Nc1ccc(C23CC4CC(CC(C4)C2)C3)cc1)c1ccc(CN2CCCCC2)cc1	100
O=C(Nc1ccc(SC(F)(F)F)c(Cl)c1)c1ccc(CN2CCCCC2)cc1	100

Field: next molecule
Kindly note the recorded remaining at 1 h, 20 µM for COC(=O)c1ccc(NC(=O)c2ccc(CN3CCCCC3)cc2)cc1 , which is 63

====

# RUN_DESCRIPTION: Metabolic stability in Sprague-Dawley rat pooled plasma assessed as parent compound remaining at 20 uM after 60 mins by HPLC analysis
# Format: ADME, cell-free
# ASSAY_SETUP: read-out: Stability
Please go through the items and note down their remaining at 1 h, 20 µM.

Here is how some compounds turned out for remaining at 1 h, 20 µM.
COMPOUND	MEASUREMENT
O=C(Nc1ccc(C2CCCCC2)cc1)c1ccc(CN2CCCCC2)c(F)c1	86%
O=C(Nc1ccc(C23CC4CC(CC(C4)C2)C3)cc1)c1ccc(CN2CCCCC2)cc1	96%
CC1CCN(c2ccc(NC(=O)c3ccc(CN4CCOCC4)cc3)cc2C(F)(F)F)CC1	89%

Field: next compound
Kindly note the recorded remaining at 1 h, 20 µM for CC(c1ccc(C(=O)Nc2ccc(C3CCCCC3)cc2)cc1)N1CCCCC1 (centres undefined) , which is 82%

====

# RUN_DESCRIPTION: Selectivity index, ratio of CC50 for human HeLa cells to EC50 for Ebola virus 1976 Mayinga in human HeLa cells
# Type: toxicity, cell-based
# ASSAY_SETUP: read-out: Ratio CC50/EC50
OBSERVATION_TYPE: selectivity ratio

COMPOUND	selectivity ratio
CC(c1ccc(C(=O)N2CC(C(C)(C)C)c3ccccc32)cc1)N1CCCCC1 (stereo not drawn)	137

Below are 2 compounds. Give each one its selectivity ratio.
1. CC(c1ccc(C(=O)Nc2ccc(C3CCCCC3)cc2)cc1)N1CCCCC1 (stereo not drawn)
2. CC(C)(C)c1ccc(NC(=O)c2ccc(CN3CCCCC3)cc2)c(C(C)(C)C)c1

[54, 227]

====

Please go through the items and note down their EC50.
# RUN_DESCRIPTION: Inhibition of pseudotyped HIV/EBOV GP infected in human A549 cells assessed as reduction in virus entry measured after 48 hrs by luciferase reporter gene assay
# Format: cell-based, Ebolavirus
# ASSAY_SETUP: Orthoebolavirus, A549, 48 h
Lab note: write values as number then unit, every time.

Here is how some molecules turned out for EC50.
MOLECULE	EC50
O=C(Nc1ccc(C2CCCCC2)cc1)c1ccc(CN2CCCCC2)cc1	990 nM
O=C(Nc1ccc(SC(F)(F)F)c(Cl)c1)c1ccc(CN2CCCCC2)cc1	1270 nM
O=C(Nc1ccc(N2CCC(F)(F)CC2)cc1)c1ccc(CN2CCCCC2)cc1	820 nM
N#CC(c1ccc(NC(=O)c2ccc(CN3CCCCC3)cc2)cc1)C1CCCC1 (stereo not given)	730 nM

Kindly note the recorded EC50 for O=C(Nc1ccc(Cl)c(C(F)(F)F)c1)c1ccc(CN2CCCCC2)cc1 , which is 1520 nM
